Assay: Cytotoxicity (CC50) in uninfected Vero cells
Details: African green monkey
result_type: CC50 at 24 h

// CCC(CC)COC(=O)[C@H](C)N[P@](=O)(OC[C@H]1O[C@@](C#N)(c2ccc3c(N)ncnn23)[C@H](O)[C@@H]1O)Oc1ccccc1 [Remdesivir, reference compound] : CC50 at 24 h value = > 50 µM

* * *

Assay: In vivo oral pharmacokinetics in Sprague Dawley rats
Details: rat, blood, male Sprague Dawley rats, 10 mg/kg, n = 3
result_type: Cmax (ng/mL)
Number only, in ng/mL; omit the unit.

>>> assay_value("CC(=O)N(c1cc(Cl)cc(Cl)c1)c1nc2cccc(O)c2c(=O)[nH]1 [Compound 2c]")
1960
>>> assay_value("CC(=O)N(c1cc(F)cc(F)c1)c1nc2cc(Cl)ccc2c(=O)[nH]1 [Compound 2b]")
5560

For the next question, use this molecule.
// CC(=O)N(c1cc(Cl)cc(Cl)c1)c1nc2cc(Cl)ccc2c(=O)[nH]1 [Compound 2a] : Cmax value = 1850
